Origin of measurements: PubChem BioAssay (NCATS)

Conditions: Ebola virus entry assay, blue channel fluorescence
The source made the active and inactive calls.

{"columns": ["Mol", "AC50"],
 "data": [
  ["Nc1nc(=S)c2[nH]cnc2[nH]1", "inactive"],
  ["CC(C)OC(=O)C(C)(C)Oc1ccc(C(=O)c2ccc(Cl)cc2)cc1", "inactive"],
  ["C#C[C@]1(O)CC[C@H]2[C@@H]3CCC4=Cc5oncc5C[C@]4(C)[C@H]3CC[C@@]21C", "7.94 µM (active)"]
]}

###

System: PAD
Assay: qHTS profiling for inhibitors of Plasmodium falciparum proliferation (AID 504749); also: nearly all actives have a fitted effect of over 60% in size
Details: P. falciparum in erythrocytes, SYBR Green DNA, 72 h; series mostly up to 28.7 µM
Results filed as inconclusive are left out. Calls of active or inactive are those of the source. Calls follow the shape of the dose curve; as a rule, active = well fitted inhibition curve with a large enough effect; inconclusive = small, poorly fitted or top-dose-only effect; inactive = flat fitted curve, though single readings scatter.
Thanks in advance; please answer with one of these: 1 (active), -1 (inactive)

{"columns": ["Compound", "Target or system", "Class label"],
 "data": [
  ["CC(C)CC(N(C)C)C1(c2ccc(Cl)cc2)CCC1 (stereo not given)", "PAD", -1],
  ["NP(N)(=O)NC(=O)c1ccc(F)cc1", "PAD", -1],
  ["c1ccc(C2CC2)c(OCC2=NCCN2)c1", "PAD", -1],
  ["Cc1ccc(-c2nc3ccc(C)cn3c2CC(=O)N(C)C)cc1", "PAD", -1],
  ["O=C(O)c1ccc2[nH]cc(CCCCN3CC=C(c4ccccc4)CC3)c2c1", "PAD", -1],
  ["FC(F)(F)c1cccc(C2=CCN(CCc3ccc4ccccc4c3)CC2)c1", "PAD", -1]
]}

Input line: Recorded test outcome, item CC(C)(C)NCC(O)c1cc(Cl)c(N)c(Cl)c1 (stereo not given)
Output line: 1

Input line: Recorded test outcome, item CCCC(C)(COC(N)=O)COC(=O)NC(C)C (stereo not given)
Output line: -1

Input line: Recorded test outcome, item CC1OC(C)OC(C)O1 (stereo not given)
Output line: -1

Input line: Recorded test outcome, item Nc1ccncc1
Output line: -1
